- Test system: TK-10 renal
- Method description: NCI tumour cell line growth inhibition, 48 h
Decide by TGI: equal to or exceeding 20 µM means y, less means n.

Input line: Exam item: decide whether the reported TGI for `Cc1c(Cl)cccc1C(=O)Nc1nc2c(s1)CN(C(=O)Nc1cccc(C(F)(F)F)c1)CC2` is at least 20 µM.
Output line: y

Input line: Would you kindly repeat that for CCCCCCCCCCCCCCCCOCC(COP(=O)(O)OCC1OC(n2cc(CC)c(=O)[nH]c2=O)CC1O)OC(=O)CCCCCCCCCCCCCCC (stereo unspecified) ?
Output line: y

Input line: Would you kindly repeat that for `O=C1C=CC2(C=C1)O[C@H](COCc1ccccc1)[C@@H](COCc1ccccc1)O2` ?
Output line: n

Input line: Would you kindly repeat that for `N#Cc1cc2c(cc1C#N)SCCSCCCSCCS2` ?
Output line: n

Input line: Would you kindly repeat that for CC1CCCCCC(=O)c2c(O)cc(O)cc2CC(=O)O1 (stereo unspecified) ?
Output line: y

Input line: Would you kindly repeat that for CSC(=S)CC(O)[C@@H]1CC2c3ccccc3C1c1ccccc12 (stereo partly specified) ?
Output line: y

Input line: Would you kindly repeat that for `COc1ccc(/C=C/C(=O)c2cc(OC)cc(OC)c2)cc1` ?
Output line: y

Input line: Would you kindly repeat that for CC(=O)OC(C)(C)C1CC[C@]2(C)/C=C/C(C)C[C@@H](O)/C=C(\C)CC(O)C12 (stereo partly specified) ?
Output line: y

Input line: Would you kindly repeat that for `CCCCn1c(=O)[nH]c(N)c([C@@H]2c3c([nH]c(=O)n(CCCC)c3=O)Oc3ccc4ccccc4c32)c1=O` ?
Output line: n

Input line: Would you kindly repeat that for COc1ccc(C2COc3c(ccc(OC)c3OC)C2=O)cc1OC (stereo unspecified) ?
Output line: y

Input line: Would you kindly repeat that for `O=C([CH-]C(=O)c1ccccc1)c1ccccc1.O=C([CH-]C(=O)c1ccccc1)c1ccccc1.O=C([CH-]C(=O)c1ccccc1)c1ccccc1.[Ga+3]` ?
Output line: y

Input line: Would you kindly repeat that for `CNC(=O)Oc1cc(C(C)C)ccc1Sc1ccc(C(C)C)cc1OC(=O)NC` ?
Output line: y

Input line: Would you kindly repeat that for O=C(O)c1ccccc1CN1CCCC(C(=O)O)C1 (stereo unspecified) ?
Output line: y

Input line: Would you kindly repeat that for `O=C(CCc1n[nH]c(=S)o1)Nc1cc(Cl)ccc1Cl` ?
Output line: y

Input line: Would you kindly repeat that for `CC(=O)N1C=Cc2c(c(C)c3c([nH]c4ccccc43)c2C)C1` ?
Output line: y

Input line: Would you kindly repeat that for `O=C(N/N=C/c1ccc(Cl)cc1)c1ccc(NC(=O)c2ccccn2)cc1` ?
Output line: y

Input line: Would you kindly repeat that for `CCN(CC)C(=O)CCn1ccc(=O)[nH]c1=O` ?
Output line: y

Input line: Would you kindly repeat that for Cc1ccc2c(c1C)C(=O)C1(C2)Cc2ccc3c(c2C1=O)CCC3 (stereo unspecified) ?
Output line: y

Input line: Would you kindly repeat that for CC(C)(C)N(Cc1ccccc1)C(=O)/C=C\S(=O)c1ccccc1 (stereo unspecified) ?
Output line: n

* * *

Answer each item with its documented TGI.
- System: SR leukemia
- Method description: NCI tumour cell line growth inhibition, 48 h
Report only the number, with the unit µM understood.

Input line: Item: `CCOc1ccc(N(C)c2ccc(/C=C/C3=[N+](C)c4ccccc4C3(C)C)cc2)cc1` Test system: SR leukemia Read-out: TGI Value: ?
Output line: 0.633

Input line: Would you kindly repeat that for `O=C(O)c1cc(CCc2ccc(O)c(O)c2)ccc1O` ?
Output line: 61.7

* * *

- System: SK-MEL-2 melanoma
- Method description: NCI tumour cell line growth inhibition, 48 h
Answer each item with its documented TGI.

Input line: Entry under review: `O=C1c2ccccc2C(=O)N1/N=C1/SC(=Nc2ccccc2)C(=Nc2ccccc2)N1c1ccccc1` . Reported TGI?
Output line: > 100 µM

Input line: Would you kindly repeat that for `N/N=c1/nc2n(c3ncccc13)C=CNN2` ?
Output line: > 100 µM

Input line: Would you kindly repeat that for `Cc1ccc(S(=O)(=O)NNC(=O)Nc2cccc(C(F)(F)F)c2)cc1` ?
Output line: > 100 µM

Input line: Would you kindly repeat that for C=CCN1C(=O)CC2[C@@H]3CCc4cc(O)ccc4C3CC[C@]2(C)C1=O (stereo partly specified) ?
Output line: > 10 µM

Input line: Would you kindly repeat that for `COc1ccc(-c2cc(N3CCN(c4ccc(Cl)cc4)CC3)c(C#N)c(=O)o2)cc1` ?
Output line: 45.3 µM

Input line: Would you kindly repeat that for `O=c1[nH]c2ccccc2n1C1CCNCC1` ?
Output line: > 100 µM

* * *

- Test system: OVCAR-3 ovarian
- Method description: NCI tumour cell line growth inhibition, 48 h
Answer each item with its documented TGI.

Input line: Entry under review: COC(=O)C(=O)C(C(=O)C(=O)Nc1ccc(Cl)c(Cl)c1)c1nc2ccc(C(=O)c3ccccc3)cc2[nH]c1=O (centres undefined) . Reported TGI?
Output line: > 100 µM

Input line: Would you kindly repeat that for `CC1=C(CCCOC(=O)[C@H](N)CC(C)C)C2=C(C)C3(CC3)[C@@](C)(O)C(=O)C2=C1` ?
Output line: 7.6 µM

Input line: Would you kindly repeat that for `Clc1ccc(/C=C/c2nc(-c3ccccc3)cn3c2nc2ccccc23)cc1Cl` ?
Output line: > 100 µM

Input line: Would you kindly repeat that for COC(=O)NC(=O)NC(Cc1ccccc1)NC(=O)OCc1ccccc1 (centres undefined) ?
Output line: > 100 µM

Input line: Would you kindly repeat that for `CC(=O)N1C=Cc2c(c(C)c3c([nH]c4ccccc43)c2C)C1` ?
Output line: 4.55 µM

Input line: Would you kindly repeat that for `CC(=O)CCC#Cc1ccccc1C(=O)C(C)=[N+]=[N-]` ?
Output line: > 100 µM

Input line: Would you kindly repeat that for COc1cccc2c1C(=O)c1c(O)c3c(c(O)c1C2=O)C[C@@](O)(C(=O)CO)CC3OC1CC(N(C)CCOCC(OC(C)=O)OC(C)=O)C(O)C(C)O1 (some centres undefined) ?
Output line: > 0.01 µM

Input line: Would you kindly repeat that for `O=S1OC(c2ccccc2)(c2ccccc2)C(c2ccccc2)(c2ccccc2)O1` ?
Output line: > 100 µM

Input line: Would you kindly repeat that for `CN1CCN(Cn2nc(COc3ccccc3Cl)n(/N=C/c3ccc(-c4ccc(Cl)cc4Cl)o3)c2=S)CC1` ?
Output line: 47.5 µM

* * *

Answer each item with its documented TGI.
- System: EKVX NSCLC
- Method description: NCI tumour cell line growth inhibition, 48 h

Input line: Entry under review: `CCCCNC(=O)OCCN=c1c2ccccc2ccc2ccccc12` . Reported TGI?
Output line: > 100 µM

Input line: Would you kindly repeat that for `CN(C)CCNc1ccc(NCC[N+](C)(C)Cc2ccc([N+](=O)[O-])cc2)c2c1C(=O)c1c(O)ccc(O)c1C2=O` ?
Output line: > 100 µM

Input line: Would you kindly repeat that for CC1CCCCCC(=O)c2c(O)cc(O)cc2CC(=O)O1 (stereo unspecified) ?
Output line: > 100 µM

Input line: Would you kindly repeat that for `O=C(O)/C=C/c1ccc(O)c(O)c1` ?
Output line: > 100 µM

Input line: Would you kindly repeat that for `COc1ccc2c(O)c(Oc3ccc(Cl)cc3)c(=O)oc2c1` ?
Output line: > 100 µM

Input line: Would you kindly repeat that for `CCOc1ccc(/C=C2\N=C(c3ccccc3)OC2=O)cc1` ?
Output line: > 100 µM

* * *

Answer each item with its documented TGI.
- Tested on: KM20L2 colon
- Method description: NCI tumour cell line growth inhibition, 48 h

Input line: Entry under review: `O=C(CCc1n[nH]c(=S)o1)Nc1cc(Cl)ccc1Cl` . Reported TGI?
Output line: > 100 µM

Input line: Would you kindly repeat that for `O=C(O)CN1CCSc2ccccc2CN(CC(=O)O)CCSc2ccccc2C1` ?
Output line: > 100 µM

Input line: Would you kindly repeat that for COC(=O)C(=O)C(C#N)c1nc2ccccc2s1 (stereo not given) ?
Output line: > 100 µM

Input line: Would you kindly repeat that for O=C1C(Cl)C(c2cccc([N+](=O)[O-])c2)N1n1cnc2ccccc2c1=O (stereo not given) ?
Output line: > 100 µM

Input line: Would you kindly repeat that for `CS(=O)(=O)OCCN(CCOS(C)(=O)=O)c1ccc(C=Nc2ccc(-c3csc(COc4ccccc4)n3)cc2)cc1` ?
Output line: 14.7 µM

* * *

- Tested on: HT29 colon
- Method description: NCI tumour cell line growth inhibition, 48 h
Experimental readout: GI50

Input line: Entry under review: `O=C1NC(=O)C(c2c[nH]c3ccccc23)=C1c1c[nH]c2ccccc12` . Reported GI50?
Output line: 11.2 µM

Input line: Would you kindly repeat that for `CC(C)(C)CC(C)(C)c1ccc(OCCO)cc1` ?
Output line: 10.6 µg/mL

Input line: Would you kindly repeat that for `CCC(=C(c1ccc(OCCN2CCCCC2)cc1)c1ccc(OCCN2CCCCC2)cc1)c1ccc(Cl)cc1` ?
Output line: 0.762 µM

Input line: Would you kindly repeat that for `C/C(=C\C(=O)O[C@H]1[C@@H]2[C@H](C)CC[C@H]2[C@]2(C)O[C@@]1(C1CCCCC1)C[C@H]2OC(=O)CO)c1ccccc1` ?
Output line: 6.47 µM

Input line: Would you kindly repeat that for `O=C(N/N=C/c1ccc(Cl)cc1)c1ccc(NC(=O)c2ccccn2)cc1` ?
Output line: > 100 µM

Input line: Would you kindly repeat that for `CC(C)=CCC/C(C)=C/CC/C(C)=C/CSC[C@H](NC(=O)CCCCCN1CCN(C)CC1)C(=O)NC1CCCCCC1` ?
Output line: 2.19 µM

Input line: Would you kindly repeat that for `ClC1=C(Cl)C(Cl)(C2(Cl)C(Cl)=C(Cl)C(Cl)=C2Cl)C(Cl)=C1Cl` ?
Output line: 0.242 µM

Input line: Would you kindly repeat that for `CC1(C)N=C(N)N=C(N)N1c1ccc(OCCCNC(=O)Nc2ccc(S(=O)(=O)F)cc2)c(Cl)c1` ?
Output line: 0.1 µM

Input line: Would you kindly repeat that for `CC(=O)/C(=C\c1ccc(Cl)cc1)c1ccccc1` ?
Output line: 0.14 µM

Input line: Would you kindly repeat that for `N#CCCNc1nonc1-c1nc2ccccc2n1CC(=O)c1ccc(N)cc1` ?
Output line: 0.0226 µM

Input line: Would you kindly repeat that for `COc1cc2c(c3oc(-c4ccc(O)cc4)c(O)c(=O)c13)CCC(C)(C)O2` ?
Output line: 3.12 µM

Input line: Would you kindly repeat that for `Nc1c(C(=O)Nc2cccc(Cl)c2)sc2nc3c(cc12)C(=O)CCC3` ?
Output line: 0.338 µM

Input line: Would you kindly repeat that for `CN(C)CCNC(=O)c1cc2c3cc(Cl)ccc3[nH]c2c2ncccc12` ?
Output line: 2.33 µM

Input line: Would you kindly repeat that for `O=C([CH-]C(=O)c1ccccc1)c1ccccc1.O=C([CH-]C(=O)c1ccccc1)c1ccccc1.O=C([CH-]C(=O)c1ccccc1)c1ccccc1.[Ga+3]` ?
Output line: 88.8 µM

Input line: Would you kindly repeat that for `CN1C(=O)C(c2c[nH]c3ccccc23)=C(c2c[nH]c3ccccc23)C1=O` ?
Output line: 8.47 µM

// data source = PubChem BioAssay (NCI)
